assay-info: HAP affinity: chromatographic profiling on hydroxyapatite column (FPLC)
Type: physicochemical
test-context: phosphate buffer gradient 1 mM up to 1000 mM, pH 6.8, determined in triplicate, longer retention = higher mineral affinity
measurement-type: Retention time (min)
Return type: number; implicit unit min.

Which value of Retention time has been reported for O=P(O)(O)C(O)(Cc1cnc2ccccn12)P(=O)(O)O [Minodronate] in the records?
10.33

Sample "O=P(O)(O)C(Cc1c[nH]c2ccncc12)P(=O)(O)O" — what was its Retention time?
6.3

Recorded Retention time for O=P(O)(O)C(O)(Cc1cccnc1)P(=O)(O)O [Risedronate] , please?
9.97

Which Retention time value is on record for O=P(O)(O)C(O)(Cn1ccnc1)P(=O)(O)O [Zoledronate] ?
12.53
